Experiment notes: Ocular tissue distribution and pharmacokinetics, 7.5 and 15 mg/kg oral, pigmented Dutch Belted rabbits (Example 7)
Type: in vivo
Reported conditions: Dutch Belted, rabbit, iris-ciliary body, oral, […], DB rabbits, Day 15, […] BID, 1 hr; read-out: Mean Iris-Ciliary Concentration
Outcome measure: concentration at 1 h
Put your answer as a value accompanied by its unit after it.

Q: For the compound CC(=O)c1nn(CC(=O)N2C[C@H](F)C[C@H]2C(=O)Nc2cccc(Br)n2)c2ccc(-c3cnc(C)nc3)cc12 [Compound 1] , report concentration at 1 h.
A: 943 ng/g

* * *

Experiment notes: Ocular tissue distribution and pharmacokinetics, 7.5 and 15 mg/kg oral, pigmented Dutch Belted rabbits (Example 7)
Format: in vivo
Reported conditions: Dutch Belted, rabbit, choroid-RPE, oral, […], DB rabbits, Day 15, […] BID, 0 hr; read-out: Mean Choroid-RPE Concentration
Procedure: For Group 1, two animals/time point were sacrificed via an overdose of sodium pentobarbital at approximately 1, 6, 12, 24, 96, 168, and 240 hours postdose. Blood (approximately 2 mL) was collected from all animals at sacrifice into tubes containing K2EDTA via exsanguination (cardiac puncture). […]
Outcome measure: concentration at 0 h (ng/g)
Output spec: scalar in ng/g, unitless text.

Q: State its concentration at 0 h for this molecule: `CC(=O)c1nn(CC(=O)N2C[C@H](F)C[C@H]2C(=O)Nc2cccc(Br)n2)c2ccc(-c3cnc(C)nc3)cc12`
A: 695
